species: Rattus norvegicus; assay: DrugMatrix - Regimen: Daily Repeat; format: toxicity, organism-based, Sprague-Dawley; design: regimen Daily Repeat, gender Male, age 6-8 weeks; conditions: in vivo, po, 0 mg/kg, 72 h, tissue Plasma, route oral GAVAGE, dose level Control, time 3 day, vehicle .5 % CMC
The following molecules are shown together with reported PHOSPHORUS values.
The reply should read as a number followed by its unit.

NCCCC(O)(P(=O)(O)O)P(=O)(O)O | 10.52 mg/dL
NC1CCN(c2nc3c(cc2F)c(=O)c(C(=O)O)cn3-c2ccc(F)cc2F)C1 (stereo not drawn) | 10.48 mg/dL
Clc1ccccc1CN1CCc2sccc2C1 | 10.52 mg/dL

[in] Identify the reported PHOSPHORUS for the following entry. C[C@H]1O[C@@H](n2cc(F)c(=O)[nH]c2=O)[C@H](O)[C@@H]1O
[out] 11.57 mg/dL

[in] Identify the reported PHOSPHORUS for the following entry. COc1cc2nc(N3CCN(C(=O)c4ccco4)CC3)nc(N)c2cc1OC
[out] 11.23 mg/dL

[in] Identify the reported PHOSPHORUS for the following entry. CN/C(=N/CCSCc1nc[nH]c1C)NC#N
[out] 11.57 mg/dL

[in] Identify the reported PHOSPHORUS for the following entry. CN(C)[C@@H]1C(O)=C(C(N)=O)C(=O)[C@@]2(O)C(O)=C3C(=O)c4c(O)ccc(Cl)c4[C@@](C)(O)[C@H]3C[C@@H]12
[out] 11.97 mg/dL

[in] Identify the reported PHOSPHORUS for the following entry. CC(C(=O)O)c1ccc2oc(-c3ccc(Cl)cc3)nc2c1 (stereo not drawn)
[out] 12.83 mg/dL

[in] Identify the reported PHOSPHORUS for the following entry. O=C1C(CC[S+]([O-])c2ccccc2)C(=O)N(c2ccccc2)N1c1ccccc1 (stereo not drawn)
[out] 11.23 mg/dL

[in] Identify the reported PHOSPHORUS for the following entry. O=C1Nc2ccc(Cl)cc2C(c2ccccc2Cl)=NC1O (stereo not drawn)
[out] 11.23 mg/dL

[in] Identify the reported PHOSPHORUS for the following entry. O=C1CN=C(c2ccccc2Cl)c2cc([N+](=O)[O-])ccc2N1
[out] 11.57 mg/dL

[in] Identify the reported PHOSPHORUS for the following entry. CN(C/C=C/C#CC(C)(C)C)Cc1cccc2ccccc12
[out] 10.48 mg/dL

[in] Identify the reported PHOSPHORUS for the following entry. Cn1c(=O)c2c(ncn2CC(O)CO)n(C)c1=O (stereo not drawn)
[out] 11.97 mg/dL

[in] Identify the reported PHOSPHORUS for the following entry. CC(=O)Oc1ccc(C(c2ccc(OC(C)=O)cc2)c2ccccn2)cc1
[out] 11.68 mg/dL

[in] Identify the reported PHOSPHORUS for the following entry. CCN(CC)CCOc1ccc(/C(=C(/Cl)c2ccccc2)c2ccccc2)cc1
[out] 12.25 mg/dL

[in] Identify the reported PHOSPHORUS for the following entry. COc1ccc(C2C(=O)c3ccccc3C2=O)cc1
[out] 10.52 mg/dL

[in] Identify the reported PHOSPHORUS for the following entry. COC1=C(OC)C(=O)C(CCCCCCCCCCO)=C(C)C1=O
[out] 11.57 mg/dL

[in] Identify the reported PHOSPHORUS for the following entry. CNCCC(Oc1ccc(C(F)(F)F)cc1)c1ccccc1 (stereo not drawn)
[out] 10.08 mg/dL
